Values were extracted from patent US4785090A.

System: Staphylococcus aureus 209PJC1
procedure-summary: Minimum Growth Inhibitory Concentration (MIC), Staphylococcus aureus 209PJC1
Type: cell-based
measurement-conditions: Staphylococcus aureus, 209PJC1, read-out: Minimum Growth Inhibitory Concentration (MIC)
attribute-measured: MIC (µg/mL)
Report the value in µg/mL with no unit label.

Task item: Which MIC value belongs to Nc1nc(/C(=N/OCC(=O)O)C(=O)N[C@@H]2C(=O)N3C(C(=O)O)=C(CSc4cc[n+](CC(=O)O)cc4)CS[C@H]23)cs1.[Na+] ?
Reply: 0.39

Task item: Can you look up the measured MIC of CCO/N=C(\C(=O)N[C@@H]1C(=O)N2C(C(=O)O)=C(CSc3cc[n+](CC(=O)O)cc3)CS[C@H]12)c1csc(N)n1.[Na+] for me?
Reply: 0.39

Task item: Field request: MIC | item: C=CCO/N=C(\C(=O)N[C@@H]1C(=O)N2C(C(=O)O)=C(CSc3cc[n+](CC(=O)O)cc3)CS[C@H]12)c1csc(N)n1.[Na+]
Reply: 12.5

Task item: MIC for CO/N=C(\C(=O)N[C@@H]1C(=O)N2C(C(=O)O)=C(CSc3cc[n+](CC(=O)O)cc3)CS[C@H]12)c1csc(N)n1.[Na+] ?
Reply: 0.78
